Target: Jak2 (a.a. 828-1132) (Homo sapiens (Human), UniProt O60674)
Sequence (O60674 828-1132): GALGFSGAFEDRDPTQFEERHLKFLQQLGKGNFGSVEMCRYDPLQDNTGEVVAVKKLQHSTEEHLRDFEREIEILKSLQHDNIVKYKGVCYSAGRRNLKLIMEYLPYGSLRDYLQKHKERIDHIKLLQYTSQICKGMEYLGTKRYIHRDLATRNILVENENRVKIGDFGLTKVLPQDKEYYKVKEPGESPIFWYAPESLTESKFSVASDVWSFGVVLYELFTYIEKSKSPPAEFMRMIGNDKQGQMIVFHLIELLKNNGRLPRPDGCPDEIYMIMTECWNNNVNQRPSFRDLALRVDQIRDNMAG
Experiment: In vitro JAK kinase assay (HTRF, phosphorylation of a biotinylated peptide), JAK2
Type: biochemical
Details: measured at 1 mM ATP
MEASURE NAME: IC50

Input line: Please give the measured IC50 for this molecule: Cc1ccc(C(=O)N2CCC(N3CC(CC#N)(n4cc(-c5ncnc6[nH]ccc56)cn4)C3)CC2)s1 [Example 80]
Output line: ≤ 10 nM

***
Input line: Quick one: IC50 for N#CCC1(n2cc(-c3ccnc4[nH]ccc34)cn2)CN(C2CCN(C(=O)Nc3ccc(F)cc3C(F)(F)F)CC2)C1 [Example 303] ?
Output line: 50 to 100 nM

Input line: Now give it for N#CCC1(n2cc(-c3ncnc4[nH]ccc34)cn2)CN(C2CCN(C(=O)c3c(F)cncc3F)CC2)C1 [Example 61] too.
Output line: 10 to 50 nM

Input line: Moving on to COc1cc(F)cc(C(=O)N2CCC(N3CC(CC#N)(n4cc(-c5ncnc6[nH]ccc56)cn4)C3)CC2)c1 [Example 36]
Output line: ≤ 10 nM

Input line: Repeat for the following molecule: N#CCC1(n2cc(-c3ncnc4[nH]ccc34)cn2)CN(C2CCN(C(=O)c3ccc(O)c(F)c3)CC2)C1 [Example 6]
Output line: 10 to 50 nM

Input line: What do you get for N#CCC1(n2cc(-c3ncnc4[nH]ccc34)cn2)CN(C2CCN(C(=O)c3cc4ccc(C(F)(F)F)cc4s3)CC2)C1 [Example 94] ?
Output line: 10 to 50 nM

Input line: Continue with COc1ccc(OC)c(NC(=O)N2CCC(N3CC(CC#N)(n4cc(-c5ncnc6[nH]ccc56)cn4)C3)CC2)c1 [Example 186]
Output line: 10 to 50 nM

Input line: Likewise for N#CCC1(n2cc(-c3ncnc4[nH]ccc34)cn2)CN(C2CCN(C(=O)Cc3c(Cl)cccc3Cl)CC2)C1 [Example 112] ?
Output line: 50 to 100 nM

Input line: Consider next the molecule N#CCC1(n2cc(-c3ncnc4[nH]ccc34)cn2)CN(C2CCN(C(=O)c3ccc(-c4ccc(F)c(F)c4)c(F)c3)CC2)C1 [Example 127] in the same way.
Output line: 10 to 50 nM

Input line: Another molecule to look at: COc1cc(C(=O)N2CCC(N3CC(CC#N)(n4cc(-c5ncnc6[nH]ccc56)cn4)C3)CC2)cc(Cl)n1 [Example 37]
Output line: ≤ 10 nM

Input line: Again, but for N#CCC1(n2cc(-c3c(F)cnc4[nH]ccc34)cn2)CN(C2CCN(C(=O)c3ccc(C#N)cc3F)CC2)C1 [Example 317]
Output line: 10 to 50 nM

---

Entries with their measured IC50, system human JAK1 (a.a. 837-1142) (Homo sapiens, UniProt P23458):

Input line: # IC50 lookup, item Cn1ccc(S(=O)(=O)N2CCC(N3CC(CC#N)(n4cc(-c5ncnc6[nH]ccc56)cn4)C3)CC2)n1 [Example 251]
Output line: ≤ 5 nM

Input line: Moving on to N#CCC1(n2cc(-c3ncnc4[nH]ccc34)cn2)CN(C2CCN(C(=O)c3cccc(C(F)(F)F)c3)CC2)C1 [Example 22]
Output line: 5 to 20 nM

Input line: Same again, this time with N#CCC1(n2ccc(-c3ncnc4[nH]ccc34)c2)CN(C2CCN(C(=O)c3ccc(F)c(F)c3)CC2)C1 [Example 277]
Output line: ≤ 5 nM

Attention now shifts to the item below.
Input line: I would be grateful if you could share the reported IC50 for [2H]C1(N2CC(CC#N)(n3cc(-c4ncnc5[nH]ccc45)cn3)C2)CCN(C(=O)c2ccnc(C(F)(F)F)c2F)CC1 [Example 363] .
Output line: ≤ 5 nM

---

Target: human JAK1 (a.a. 837-1142)
Test: In vitro JAK kinase assay (HTRF, phosphorylation of a biotinylated peptide), JAK1
Type: biochemical
Details: ratio of JAK2 IC50 to JAK1 IC50, measured at 1 mM ATP
Structures can show the parent of a compound that is named as a salt.
MEASURE NAME: IC50 Ratio JAK2/JAK1

Look over these answered cases.
Input line: Record `N#CCC1(n2cc(-c3c(F)cnc4[nH]ccc34)cn2)CN(C2CCN(C(=O)c3ccc(F)c(C#N)c3)CC2)C1` : what is its IC50 Ratio JAK2/JAK1 with human JAK1 (a.a. 837-1142)?
Output line: 4.7

Input line: # iterate: N#CCC1(n2cc(-c3ncnc4[nH]ccc34)cn2)CN(C2CCN(C(=O)c3cc(CN4CC[C@H](F)C4)nc(C(F)(F)F)n3)CC2)C1 [Example 377, TFA]
Output line: 35.7

Input line: Follow-up item: `N#CCC1(n2cc(-c3ncnc4[nH]ccc34)cn2)CN(C2CCN(C(=O)OCc3ccc(F)cc3F)CC2)C1`
Output line: 7.1

Input line: Okay, and `N#CCC1(n2cc(-c3ccnc4[nH]ccc34)cn2)CN(C2CCN(C(=O)Nc3ccc(F)cc3F)CC2)C1` ?
Output line: 10.3

Input line: Would you mind doing `N#CCC1(n2cc(-c3c(C#N)cnc4[nH]ccc34)cn2)CN(C2CCN(C(=O)c3cc(F)cc(C#N)c3)CC2)C1` as well?
Output line: 8.8

Input line: Param item: `N#CCC1(n2cc(-c3ncnc4[nH]ccc34)cn2)CN(C2CCN(C(=O)Nc3ncccc3F)CC2)C1`
Output line: 6.4

Input line: // repeat for `CC(C)COC(=O)N1CCC(N2CC(CC#N)(n3cc(-c4ncnc5[nH]ccc45)cn3)C2)CC1` and report
Output line: 8.3

Input line: Follow-up item: `N#CCC1(n2cc(-c3ccnc4[nH]ccc34)cn2)CN(C2CCN(C(=O)Nc3ccncc3C(F)(F)F)CC2)C1`
Output line: 8.8

Input line: What about this molecule? `N#CCC1(n2cc(-c3c(F)cnc4[nH]ccc34)cn2)CN(C2CCN(C(=O)c3ccc(O)cc3F)CC2)C1`
Output line: 5.0

Input line: Item: `N#CCC1(n2cc(-c3c(C#N)cnc4[nH]ccc34)cn2)CN(C2CCN(C(=O)c3ccc(C#N)c(F)c3)CC2)C1`
Output line: 4.3

(A) N#CCC1(n2cc(-c3ncnc4[nH]ccc34)cn2)CN(C2CCN(C(=O)c3cc(F)ccc3F)CC2)C1
(B) CN(C)c1c(F)c(F)c(C(=O)N2CCC(N3CC(CC#N)(n4cc(-c5ncnc6[nH]ccc56)cn4)C3)CC2)c(F)c1F
(C) COc1cccc(F)c1CN1CCC(N2CC(CC#N)(n3cc(-c4ncnc5[nH]ccc45)cn3)C2)CC1
Input line: hey, can you rank those molecules up there by IC50 Ratio JAK2/JAK1? biggest number first please Labels, ranked as asked.
Output line: A, C, B

---

pIC50: −log10 of the molar value.
Heads up, these compounds all have pIC50 values measured for Jak2 (a.a. 828-1132) (Homo sapiens (Human), UniProt O60674).

Input line: Provide value of pIC50 for this record tested with Jak2 (a.a. 828-1132) (Homo sapiens (Human), UniProt O60674): `[2H]C1([2H])CN(C(=O)c2ccnc(C(F)(F)F)c2F)CC([2H])([2H])C1([2H])N1CC(CC#N)(n2cc(-c3ncnc4[nH]ccc34)cn2)C1`
Output line: 7.00 to 7.30

Input line: And then `CC(C)NCc1cc(C(=O)N2CCC(N3CC(CC#N)(n4cc(-c5ncnc6[nH]ccc56)cn4)C3)CC2)nc(C(F)(F)F)n1` , what is it?
Output line: 7.30 to 8.00

Input line: What do you get for `N#CCC1(n2cc(-c3ncnc4[nH]ccc34)cn2)CN(C2CCN(C(=O)c3ccc(-c4ccc(C#N)cc4)c(F)c3)CC2)C1` ?
Output line: 7.30 to 8.00

Input line: Now consider `N#CCC1(n2cc(-c3ncnc4[nH]ccc34)cn2)CN(C2CCN(C(=O)c3c(F)c(F)cc(F)c3F)CC2)C1` .
Output line: ≥ 8.00

Input line: Next compound up: `CSc1ccc(C(=O)N2CCC(N3CC(CC#N)(n4cc(-c5ncnc6[nH]ccc56)cn4)C3)CC2)cc1F`
Output line: 7.00 to 7.30

Further cases:
Input line: Form field: pIC50 recorded for `N#CCC1(n2cc(-c3ncnc4[nH]ccc34)cn2)CN(C2CCN(C(=O)Nc3ccc(F)c(F)c3)CC2)C1` with Jak2 (a.a. 828-1132) (Homo sapiens (Human), UniProt O60674) (enter value)
Output line: ≥ 8.00

---

Molecular target: human JAK1 (a.a. 837-1142)
Test: In vitro JAK kinase assay (HTRF, phosphorylation of a biotinylated peptide), JAK1
Format: biochemical
Details: ratio of JAK2 IC50 to JAK1 IC50, measured at 1 mM ATP
MEASURE NAME: IC50 Ratio JAK2/JAK1

Input line: What is its IC50 Ratio JAK2/JAK1 for human JAK1 (a.a. 837-1142)? Entry: `N#CCC1(n2cc(-c3ncnc4[nH]ccc34)cn2)CN(C2CCN(C(=O)c3ccc(-c4nc5ccccc5o4)cc3)CC2)C1`
Output line: 5.6

Input line: Same question, `N#CCC1(n2cc(-c3c(F)cnc4[nH]ccc34)cn2)CN(C2CCN(C(=O)c3cc(F)cc(C#N)c3)CC2)C1` this time
Output line: 9.5

Input line: // repeat for `N#CCC1(n2cc(-c3ccnc4[nH]ccc34)cn2)CN(C2CCN(C(=O)c3ccc(O)cc3F)CC2)C1` and report
Output line: 10.0

Input line: Thanks! And `N#CCC1(n2cc(-c3ccnc4[nH]ccc34)cn2)CN(C2CCN(C(=O)c3cnc(C(F)(F)F)cn3)CC2)C1` ?
Output line: 3.3

Input line: Repeat with `N#CCC1(n2ccc(-c3ncnc4[nH]ccc34)c2)CN(C2CCN(C(=O)c3cnc(C(F)(F)F)cn3)CC2)C1`
Output line: 2.7

(a) N#CCC1(n2cc(-c3ncnc4[nH]ccc34)cn2)CN(C2CCN(C(=O)Nc3ncccc3C(F)(F)F)CC2)C1
(b) N#CCC1(n2cc(-c3ncnc4[nH]ccc34)cn2)CN(C2CCN(Cc3cc4ccccc4o3)CC2)C1
(c) N#CCC1(n2cc(-c3ncnc4[nH]ccc34)cn2)CN(C2CCN(Cc3cccc(C#N)c3)CC2)C1
Input line: Ascending by IC50 Ratio JAK2/JAK1, please. Sort and list the labels as requested.
Output line: b, a, c

(A) N#CCC1(n2cc(-c3ncnc4[nH]ccc34)cn2)CN(C2CCN(C(=O)c3sccc3Cl)CC2)C1
(B) Cc1csc(NC(=O)N2CCC(N3CC(CC#N)(n4cc(-c5ncnc6[nH]ccc56)cn4)C3)CC2)n1
(C) N#CCC1(n2cc(-c3ncnc4[nH]ccc34)cn2)CN(C2CCN(C(=O)Nc3ccccc3OC(F)F)CC2)C1
Input line: Sort entries by IC50 Ratio JAK2/JAK1 from minimum to maximum value. Form field (ranking): labels in requested order.
Output line: B, A, C
